System: M. tuberculosis H37Rv growth inhibition, 7H9 media
experimental protocol: M. tuberculosis growth inhibition, HTS (AID 449762);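 further: bacterial growth assessed after seven days of incubation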
assay conditions: measured here: IC90 growth inhibition
Inconclusive results are not listed.
Assign IC90 to each entry below.
Return type: number; implicit unit µM.

Ask: Notebook: pull reported IC90 for M. tuberculosis H37Rv growth inhibition, 7H9 media, entry `CSc1cccc(NC(=O)CCS(=O)(=O)c2cccc3nonc23)c1`
Reply: 7.46

Ask: Can you look up IC90 on M. tuberculosis H37Rv growth inhibition, 7H9 media for `Cn1c(CNc2ccccc2O)nc2ccccc21` ?
Reply: 3.52

Ask: Form field: IC90 recorded for `Nc1cc([N+](=O)[O-])ccc1Nc1ccc(O)cc1` with M. tuberculosis H37Rv growth inhibition, 7H9 media (enter value)
Reply: 34

Ask: Which IC90 is reported with M. tuberculosis H37Rv growth inhibition, 7H9 media for this entry: CCC(C)NC(=O)c1cn(CC)c2cc(N3CCN(C(=O)c4ccco4)CC3)c(F)cc2c1=O (stereo unspecified) ?
Reply: 30.9

Ask: What is its IC90 for M. tuberculosis H37Rv growth inhibition, 7H9 media? Entry: `C#CCOC(=O)/C(=C/C=C/c1ccccc1)NC(=O)c1ccccc1`
Reply: 43.3

Ask: What reported IC90 corresponds to `COC(=O)CC(=O)N1CCN(c2ccc(Cl)c(Cl)c2)CC1` on M. tuberculosis H37Rv growth inhibition, 7H9 media?
Reply: 55

Ask: Entry `Cn1nc(-c2ccc(N3CCCCC3)c(NC(=O)c3ccco3)c2)c2ccccc2c1=O` , system M. tuberculosis H37Rv growth inhibition, 7H9 media: what IC90 was measured?
Reply: 16.1

###

For each record, write down the corresponding IC90.
Test system: M. tuberculosis H37Rv growth inhibition, 7H9 media
experimental protocol: M. tuberculosis growth inhibition, HTS (AID 449762);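 further: bacterial growth assessed after seven days of incubation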
assay conditions: measured here: IC90 growth inhibition
Results filed as inconclusive are left out.
Respond numerically; units are µM and should not be typed.

Ask: # lookup: IC90 of O=C(c1ccc(-c2ccccc2)c(F)c1)C1CCCN(C(=O)c2cncs2)C1 (stereo not given)
Reply: 46.8

Ask: Reported IC90, compound `O=C(NCCc1ccccc1)[C@@H]1CC=C[C@@H]2CCN(Cc3ccc(Cl)c(Cl)c3)C(=O)[C@@H]21` : ____
Reply: 79.1

Ask: Fill in the blank: the reported IC90 of `N#Cc1c([N+](=O)[O-])cc([N+](=O)[O-])cc1S(=O)(=O)Cc1ccccc1` is ____.
Reply: 22.6

Ask: Field request: IC90 | item: CC(=O)Nc1ccc(N2C(C(C)=O)=NN(c3ccc(Cl)cc3)C2c2sccc2C)cc1 (stereo not given)
Reply: 93.1

Ask: Need IC90, item `CC(=O)N1CCN(c2ccc(Oc3ccc([N+](=O)[O-])c(C(F)(F)F)c3)cc2)CC1`
Reply: 19.3

Ask: Tell me the measured IC90 of `CN(Cc1ccco1)c1ncnc2ccc(-c3ccc4c(ccn4C)c3)cc12` , please.
Reply: 44.9

Ask: For `CSc1nsc(SCC(=O)N2CCCCC2)n1` , what is its reported IC90?
Reply: 8.81

###

Test system: M. tuberculosis H37Rv growth inhibition, 7H9 media
experimental protocol: M. tuberculosis growth inhibition, HTS (AID 449762);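 further: bacterial growth assessed after seven days of incubation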
assay conditions: measured here: IC90 growth inhibition
Results filed as inconclusive are left out.
Exercise: state measured IC90 for each of the compounds provided.
// note: answer is a bare numeric in µM

Ask: Report IC90 for CC(C)(C)C1CCc2c(sc3nc(SCC(N)=O)nc(N)c23)C1 (configuration not stated) please.
Reply: 31.8

Ask: I have this compound here, NC1=NC2(CCC(c3ccccc3)CC2)n2c(nc3ccccc32)N1 (configuration not stated) , and I need its recorded IC90.
Reply: 38.3

Ask: Using the record for `NCCCn1c(C(=O)c2ccc(Cl)cc2)c2ccc([N+](=O)[O-])cc2[n+]1[O-]` , report its IC90.
Reply: 32.3

Ask: Name the reported IC90 value associated with the compound `COc1nn(-c2ccccc2)c(=O)c(Cl)c1Cl`
Reply: 9.06

Ask: Find the recorded IC90 belonging to `Cc1cccc2c1N(CCCOc1ccc(C(C)(C)C)cc1)C(=O)C2=O` and report it.
Reply: 20.7

Ask: Give the measured IC90 of `CCN1CSC(=S)N(Cc2ccccc2)C1` .
Reply: 24.1

Ask: # input compound: Cc1cnc(NC(=O)NCC2CCCC(CNC(=O)Nc3ncc(C)s3)C2)s1 (configuration not stated) ; wanted: its IC90
Reply: 28.2

Ask: What IC90 value was documented for this compound, `CCNCC(=O)N1c2ccccc2CCc2ccc(NC(=O)OC(C)C)cc21` ?
Reply: 71.3

Ask: // IC90 lookup, key: `CSC(=S)NCc1cccnc1`
Reply: 34.7

Ask: What measured IC90 goes with O=C(CSc1nnc(-c2cccs2)o1)NCC1CN(Cc2ccccc2)CCO1 (configuration not stated) ?
Reply: 15.2

Ask: Look up IC90 for this compound: `Cc1ccccc1Nc1nc(N)nc(COC(=O)c2ccc([N+](=O)[O-])o2)n1`
Reply: 2.46

Ask: Using the record for CC(C)(C)c1ccc(C(O)CCCN2CCC(C(O)(c3ccccc3)c3ccccc3)CC2)cc1 (configuration not stated) , report its IC90.
Reply: 17.4

Ask: Returns the measured IC90 for the input compound. Input: COc1ccccc1NC(=O)C(C)OC(=O)/C=C/c1ccc2ccccc2n1 (configuration not stated)
Reply: 11.4

Ask: Need IC90 of `CC(C)(C)NC(=O)[C@@H]1C[C@@H]2CCCC[C@@H]2CN1C[C@@H](O)[C@H](Cc1ccccc1)NC(=O)[C@H](CC(N)=O)NC(=O)c1ccc2ccccc2n1` , thanks.
Reply: 51.9

Ask: Which value of IC90 has been reported for `C/C(CCc1ccc2c(c1)OCO2)=N\NC(=S)NC(C)C` in the records?
Reply: 48.4

Ask: Entry `COc1ccc(/C=C/CN2CCC(CO)(Cc3ccccc3Cl)CC2)cc1` : reported IC90 = ?
Reply: 26.6

Ask: Looking for the measured IC90 of `O=C(/C=C\c1cccs1)N1CCN(Cc2ccc3c(c2)OCO3)CC1` , can you help?
Reply: 5.53

Ask: What value of measured IC90 is listed for `O=C(c1cc2ccccc2o1)N1CCN(S(=O)(=O)c2ccc(Cl)s2)CC1` ?
Reply: 13.1

Ask: Reported IC90, compound `COc1ccc(C(=O)OCCNC(=O)c2c(Cl)nc3ccccn23)cc1` : ____
Reply: 16.1

###

Answer each item with its documented IC90.
System: M. tuberculosis H37Rv growth inhibition, 7H9 media
experimental protocol: M. tuberculosis growth inhibition, HTS (AID 449762);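 further: bacterial growth assessed after seven days of incubation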
assay conditions: measured here: IC90 growth inhibition
Inconclusive results are not listed.
Write it as a number; the unit µM goes unstated.

Ask: IC90 of `CCCSc1nnc(Sc2nnnn2-c2ccccc2)s1` on M. tuberculosis H37Rv growth inhibition, 7H9 media?
Reply: 33

Ask: Quick check: IC90 on M. tuberculosis H37Rv growth inhibition, 7H9 media, item `Cc1ccc(-n2cccc2C(=S)N=P(N(C)C)(N(C)C)N(C)C)cc1` ?
Reply: 25.5

Ask: # returns recorded IC90 (system: M. tuberculosis H37Rv growth inhibition, 7H9 media) for COC(=O)C(C)Oc1cc(C)ccc1COc1ccc(-n2nc(C)n(C(F)F)c2=O)cc1 (centres undefined)
Reply: 32.9

Ask: Under M. tuberculosis H37Rv growth inhibition, 7H9 media: IC90 value of `Cc1ccc(N(CCC#N)C(=O)CCl)cc1C` ?
Reply: 4.41

Ask: Quick check: IC90 on M. tuberculosis H37Rv growth inhibition, 7H9 media, item O=C1CCCC2=C1C1c3ccccc3C(=O)N1c1ccc(C(=O)c3ccccc3)cc1N2 (centres undefined) ?
Reply: 21.9

Ask: Write down the reported IC90 of CO[C@@H]1[C@@H](OC(N)=O)[C@@H](O)C(Oc2ccc3c(O)c(NC(=O)c4ccc(O)c(CC=C(C)C)c4)c(=O)oc3c2C)OC1(C)C (some centres undefined) , test system: M. tuberculosis H37Rv growth inhibition, 7H9 media.
Reply: 9.66

Ask: So what IC90 did `COc1ccc(C2=NC(=O)/C(=C\c3cc(OC)c(OC)c(OC)c3)O2)cc1` get with M. tuberculosis H37Rv growth inhibition, 7H9 media?
Reply: 49.3

Ask: Record lookup: for M. tuberculosis H37Rv growth inhibition, 7H9 media, what IC90 belongs to OC(CNCC(c1ccc(Cl)cc1Cl)c1c[nH]c2ccccc12)c1ccccc1 (centres undefined) ?
Reply: 23.4

Ask: State its IC90 on M. tuberculosis H37Rv growth inhibition, 7H9 media: CCOC(=O)C1=C(C)NC(SCC(=O)Nc2nc(C)cs2)=C(C#N)C1c1cccs1 (centres undefined)
Reply: 48.7

Ask: Please state recorded IC90 (tested on M. tuberculosis H37Rv growth inhibition, 7H9 media) of CCOC(=O)C(C)Sc1ncnc2c1nnn2-c1ccc(F)cc1 (centres undefined)
Reply: 7.38

Ask: Provide value of IC90 for this record tested with M. tuberculosis H37Rv growth inhibition, 7H9 media: `CCOC(=O)CCCc1ccc(/C(C)=N/NC(N)=S)cc1`
Reply: 14.7

Ask: Item `COc1ccc(N2CCN(C(=O)c3cc4c(C)nc5ccccc5c4o3)CC2)cc1` with M. tuberculosis H37Rv growth inhibition, 7H9 media - IC90?
Reply: 32.5

Ask: Param readout= IC90; system= M. tuberculosis H37Rv growth inhibition, 7H9 media; entry= `CC1(C)Cc2ccccc2C2=NNC(=O)C2=N1` ; returns value.
Reply: 21

Ask: Reported IC90 for M. tuberculosis H37Rv growth inhibition, 7H9 media, given O=C(NCCc1ccc(Cl)cc1)c1ccc(CS(=O)Cc2ccc(Cl)cc2)o1 (centres undefined) ?
Reply: 49.1

Ask: IC90 of `CN1CCN(Cn2cc(/C=C/C(=O)c3ccccc3)c3ccccc32)CC1` on M. tuberculosis H37Rv growth inhibition, 7H9 media?
Reply: 26.3

Ask: Please provide the recorded IC90 for `CCOC(=O)CSc1nc(C)c(C(=O)OCC)s1` , tested on M. tuberculosis H37Rv growth inhibition, 7H9 media.
Reply: 9.29

Ask: Return IC90 measured with M. tuberculosis H37Rv growth inhibition, 7H9 media given this compound: `Clc1ccc(CNc2nc(CN3CCOCC3)nc3scc(-c4ccccc4)c23)cc1`
Reply: 43.6

Ask: What IC90 appears in the records for this compound with M. tuberculosis H37Rv growth inhibition, 7H9 media? `CCCCCCCCNC(=O)CCNC(=O)c1ccc(C(C)(C)C)cc1`
Reply: 44.6

Ask: API: value(readout=IC90, system=M. tuberculosis H37Rv growth inhibition, 7H9 media) for record COC(=O)C1C2c3ccccc3OC1(C)N=c1s/c(=C/c3cnn(C)c3C)c(=O)n12 (centres undefined)
Reply: 13.1

Ask: Look up IC90 with M. tuberculosis H37Rv growth inhibition, 7H9 media for this compound: `CC(C)c1nnc(NC(=O)CCC(=O)N2CCN(c3ccc(Cl)cc3)CC2)s1`
Reply: 29.5

Ask: Provide value of IC90 for this record tested with M. tuberculosis H37Rv growth inhibition, 7H9 media: `CCOc1ccc(-n2cc(-c3ccccc3)c3c(=O)[nH]cnc32)cc1`
Reply: 27.5

Ask: Form: Entry = `Cc1sc2ncnc(N3CCC(C(=O)NCC(=O)Nc4ccc(F)c(F)c4)CC3)c2c1C` | System = M. tuberculosis H37Rv growth inhibition, 7H9 media | IC90 = ____
Reply: 50

Ask: Please provide the recorded IC90 for `CCCCOc1ccc(C(=O)Oc2ccc(C)nc2)cc1` , tested on M. tuberculosis H37Rv growth inhibition, 7H9 media.
Reply: 72.3

Ask: // lookup IC90 | system=M. tuberculosis H37Rv growth inhibition, 7H9 media | key= `C=CCNC(=S)N/N=C(\C)c1ccccn1`
Reply: 17.7

Ask: Notebook: pull reported IC90 for M. tuberculosis H37Rv growth inhibition, 7H9 media, entry `CC1CCN(C(=S)NC(=O)c2cccs2)CC1`
Reply: 29

Ask: Give recorded IC90 with M. tuberculosis H37Rv growth inhibition, 7H9 media for the following compound: `COc1cc(OC)nc(-n2ncc(Br)c(Br)c2=O)n1`
Reply: 60.7

Ask: Report IC90 for `COc1ccccc1OCCN1CSC(=S)N(C)C1` tested on M. tuberculosis H37Rv growth inhibition, 7H9 media.
Reply: 15.3

Ask: Given the entry Cc1ccc(CN2C3CCCC2CC(NC(=S)NCc2ccccc2)C3)cc1 (centres undefined) , what IC90 was observed with M. tuberculosis H37Rv growth inhibition, 7H9 media?
Reply: 52.4

Ask: Notebook: pull reported IC90 for M. tuberculosis H37Rv growth inhibition, 7H9 media, entry `COc1cc(N)c(Cl)cc1C(=O)N[C@H]1CCN(CCCOc2ccc(F)cc2)C[C@H]1OC`
Reply: 55.2

Ask: Please state recorded IC90 (tested on M. tuberculosis H37Rv growth inhibition, 7H9 media) of `C=C1C(=O)[C@@]23[C@H](O)C[C@@H]4C(C)(C)CC[C@H](O)[C@@]4(C)[C@@H]2CC[C@@H]1[C@H]3O`
Reply: 4.05

Ask: Observed IC90 on M. tuberculosis H37Rv growth inhibition, 7H9 media for `CSc1nsc(SCC(=O)Nc2ccc(F)cc2F)n1` , please.
Reply: 63.4

Ask: Request body: readout IC90, system M. tuberculosis H37Rv growth inhibition, 7H9 media, query COC(=O)C1CC(=O)N(c2ccc(OCc3ccccc3Cl)cc2)C1 (centres undefined) . Return the value.
Reply: 3.52

Ask: For M. tuberculosis H37Rv growth inhibition, 7H9 media, provide IC90 of `N#CCn1c(CCl)nc2ccccc2c1=O` please.
Reply: 17.4

Ask: M. tuberculosis H37Rv growth inhibition, 7H9 media / IC90 / `C/C(O)=C\c1nc2ccccc2oc1=O` : value?
Reply: 0.86
